# Test system: NCI/ADR-RES ovarian
# ASSAY: NCI tumour cell line growth inhibition, 48 h
Where a SMILES comes first, the peptide text is derived from it. [ ]: non-standard residue; d: D form. The star is where a group is joined. ξ: configuration not given here. X37 = O=C(OCc1ccccc1)[C@@H]1CCC[C@H]1N*; Fmoc = O=C(OCC1c2ccccc2-c2ccccc21)*; ξW = NC(Cc1c[nH]c2ccccc12)C(=O)O; ξF = NC(Cc1ccccc1)C(=O)O; Boc = CC(C)(C)OC(=O)*; ξK = NCCCCC(N)C(=O)O; ξT = CC(O)C(N)C(=O)O; tBu = CC(C)(C)*
# TGI per entry

Use these answered entries as a reference point.
Cc1ccc(S(=O)(=O)OC2CN3CCC2CC3)cc1 (configuration not stated) : > 100 µM
CC(=O)C1=CC=C/C1=N\Nc1ccccc1 : > 100 µM
CC(OC(C)(C)C)C(NC(=O)C(CCCCNC(=O)OC(C)(C)C)NC(=O)C(Cc1c[nH]c2ccccc12)NC(=O)C(Cc1ccccc1)NC(=O)OCC1c2ccccc2-c2ccccc21)C(=O)NC(Cc1ccccc1)C(=O)N[C@@H]1CCC[C@H]1C(=O)OCc1ccccc1 (some centres not stated) (Fmoc-[ξF][ξW][ξK](Boc)[ξT](tBu)[ξF]-X37) : > 100 µM
COc1cccc(-n2nnc3c(N)nc(N)nc32)c1 : > 100 µM
Cc1c2cc[n+](C)cc2c(C)c2c1[nH]c1ccc(O)cc12 : > 100 µM

// Input: CC1=C(C(=O)Nc2ccc(F)c(Cl)c2)C(c2cccc(Cl)c2)NC(=O)N1 (configuration not stated) . Output its TGI only. 67.6 µM

Return reported TGI. Input compound: Cc1ccc(Nc2ncnc3sc(SCc4ccccc4)nc23)cc1 > 100 µM

// Input: Cc1ccc(/C=C2\CCOC2=O)cc1 . Output its TGI only. > 100 µM

Identify the reported TGI for the following entry. CC(=O)NC1C(OCC(=O)NC(C)C(=O)NC(CCC(=O)NCCCCCNc2ccc([N+](=O)[O-])c3[nH]c4ccccc4c(=O)c23)C(N)=O)C(O)C(CO)OC1(C)OCc1ccccc1 (configuration not stated) > 50 µM

Return reported TGI. Input compound: CC(=O)O[C@H]1C(=O)[C@]2(C)[C@@H](OC(=O)OCC(O)CO)C[C@H]3OC[C@@]3(OC(C)=O)[C@H]2[C@H](OC(=O)c2ccccc2)[C@]2(O)C[C@H](OC(=O)[C@H](O)[C@@H](NC(=O)c3ccccc3)c3ccccc3)C(C)=C1C2(C)C (some centres not stated) 4.94 µM

Indicate the recorded TGI value for this compound: COc1ccc(-n2c(N)c(C(=O)NCCN3CCOCC3)c3nc4ccccc4nc32)cc1OC > 100 µM

Give the measured TGI for CC(C)(C)CC(C)(C)Cc1ccc(OCCOCC[N+](C)(C)Cc2ccccc2)cc1 58.6 µM

---

# System: UACC-257 melanoma
# ASSAY: NCI tumour cell line growth inhibition, 48 h
MEASURE_NAME: TGI

NCCOc1ccccn1 : > 100 µM
CCN1C(=O)N(c2c(F)c(OC)cc(OC)c2F)Cc2cnc3[nH]c(CN4CCOCC4)cc3c21 : > 100 µM
O=C1/C(=C/c2ccc(O)cc2)CCC1CNc1ccc(Cl)cc1 (stereo not given) : 11.7 µM
COc1cccc(-n2nnc3c(N)nc(N)nc32)c1 : > 100 µM

# return recorded TGI for entry Cc1ccc(S(=O)(=O)OC2CN3CCC2CC3)cc1 (stereo not given) > 100 µM
